These data points were gathered from patent US20200055939A1.

target: MICA*004 on HCC1534 cells (human, UniProt Q29983 24-383); test: cell-based or functional assay; note: test concentration or dose not given here
measurementType: % Inhibition (%)
Please give a number only; it is taken to be in %.

Study these solved cases before continuing.
{"binder": "1D5v4 (antibody, IgG1, V domains shown, humanized variant of 1D5) VH: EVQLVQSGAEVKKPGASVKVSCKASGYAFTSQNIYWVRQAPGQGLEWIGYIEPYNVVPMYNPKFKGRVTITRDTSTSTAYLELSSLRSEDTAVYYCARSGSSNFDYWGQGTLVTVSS VL: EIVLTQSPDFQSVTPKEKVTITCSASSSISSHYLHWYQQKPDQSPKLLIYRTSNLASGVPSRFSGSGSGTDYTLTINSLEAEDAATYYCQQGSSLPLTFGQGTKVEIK", "unitSymbol": "%", "recordedValue": 46}
{"binder": "1D5v21 (antibody, IgG1, V domains shown, humanized variant of 1D5) VH: EIQLVQSGAEVKKPGASVKVSCKASGYAFTSQNIYWVRQAPGQGLEWIGYIEPYNVVPMYNPKFKGRATITVDKSTSTAYLELSSLRSEDTAVYYCARSGSSNFDYWGQGTLVTVSS VL: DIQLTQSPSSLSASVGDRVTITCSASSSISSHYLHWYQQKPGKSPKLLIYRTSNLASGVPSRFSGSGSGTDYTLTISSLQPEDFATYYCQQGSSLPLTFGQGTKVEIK", "unitSymbol": "%", "recordedValue": 55}

Q: Please look at this binder and report its % Inhibition: 1D5v29 (antibody, IgG1, V domains shown, humanized variant of 1D5) VH: EIQLVQSGAEVKKPGASVKVSCKASGYAFTSQNIYWVRQAPGQGLEWIGYIEPYNVVPVYNPKFKGRATLTVDKSTSTAYLELSSLRSEDTAVYYCARSGSSNFDYWGQGTLVTVSS VL: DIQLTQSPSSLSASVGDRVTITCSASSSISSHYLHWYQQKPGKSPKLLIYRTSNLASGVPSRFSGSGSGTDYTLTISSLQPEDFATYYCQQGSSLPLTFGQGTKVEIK
Result: 40
